Taken from paper doi:10.1101/2025.04.16.649181.

TARGET OF ASSAY: PAC1 (endogenous, mainly PAC1null, SH-SY5Y) (Homo sapiens)
Construct: Neuroblastoma SH-SY5Y cells endogenously xpressing hPAC1 and engineered to express CBS; endogenous in cells
PROTOCOL: CBS assay, antagonism of P27-induced cAMP in SY5Y_CBS cells
Format: cell-based
CONDITION PARAMETERS: IC50 against P27, 0.2 nM P27 (EC80), mean ± SEM, n = 3, Figure 7C
No end group written: not given here.
TEST READOUT: pIC50
pIC50 is a log-scale quantity: -log10 of the concentration expressed in molar.

Req: Fill in pIC50 for record FTDSYSRYRKQMAVKKYLAAVL-NH2 [P6-27]
Resp: 6.70

###

TARGET OF ASSAY: PAC1 (endogenous, mainly PAC1null, SH-SY5Y) (Homo sapiens)
Construct: Neuroblastoma SH-SY5Y cells endogenously xpressing hPAC1 and engineered to express CBS; endogenous in cells
Sequence (P41586 21-468): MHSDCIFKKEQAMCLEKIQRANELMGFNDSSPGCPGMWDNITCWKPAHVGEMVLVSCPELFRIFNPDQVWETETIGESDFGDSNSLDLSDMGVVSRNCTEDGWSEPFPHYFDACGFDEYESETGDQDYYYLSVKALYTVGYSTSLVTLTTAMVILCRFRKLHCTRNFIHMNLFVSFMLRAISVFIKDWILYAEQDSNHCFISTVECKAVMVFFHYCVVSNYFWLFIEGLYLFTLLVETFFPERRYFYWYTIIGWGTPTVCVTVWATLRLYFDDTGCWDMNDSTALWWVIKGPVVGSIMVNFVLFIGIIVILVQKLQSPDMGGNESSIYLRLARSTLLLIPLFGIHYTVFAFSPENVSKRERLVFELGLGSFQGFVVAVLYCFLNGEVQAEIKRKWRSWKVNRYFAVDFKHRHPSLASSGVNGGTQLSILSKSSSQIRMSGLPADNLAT
PROTOCOL: CBS assay, antagonism of P38-induced cAMP in SY5Y_CBS cells
Assay type: cell-based
CONDITION PARAMETERS: 0.2 nM P38 (EC80), SY5Y_CBS, mean ± SEM, three independent experiments, Figure 11B; read-out: IC50 of P6-38 C-terminal mutants in CBS assay
No end group written: not given here.
TEST READOUT: IC50 (nM)
# unit: nM | format: bare number

Consider the reported IC50 for these substances:
INSERT INTO measurements (substance, test_readout, unit, measured_number) VALUES
  ('FTDSYSRYRKQMAVKKYLAAVLGKRYKQRVK-NH2 [P6-36]', 'IC50', 'nM', 90),
  ('FTDSYSRYRKQMAVKKYLAAVLGKRYK-NH2 [P6-32]', 'IC50', 'nM', 72);

Then there is this substance:
Req: Fill in IC50 for record FTDSYSRYRKQMAVKKYLAAVLGKR-NH2 [P6-30]
Resp: 84
